Test system: SK-MEL-2 melanoma
Assay: NCI tumour cell line growth inhibition, 48 h
Recorded TGI by entry
Respond numerically; units are µM and should not be typed.

Recorded results for 9 molecules are shown here.
| molecule | recorded-result |
| --- | --- |
| Cc1nc(Nc2cccnc2)sc1C(=O)/C=C/c1ccc(F)cc1 | 9.03 |
| CCC(C)(C)c1ccc(OCCCCNC(=O)c2ccc3ccccc3c2O)c(C(C)(C)CC)c1 | 62 |
| Cc1nn(-c2ccccc2)c2c1C(c1cc3ccccc3nc1Cl)NC(=O)N2 (stereo unspecified) | 29.5 |
| S=c1c2cn[nH]c2nc2scc(-c3ccc(Cl)cc3)n12 | 46.6 |
| COC(=O)/C=C\C(C#N)(C#N)N=Cc1ccc(C)cc1 | 32.1 |
| COc1c(O)c2c(=O)cc3c4c5c(cc(=O)c6c(O)c(OC)c(CC(C)O)c(c(c1CC(C)O)c24)c65)OCO3 (stereo unspecified) | 3.57 |
| CCOC(=O)c1nc2c(OC)nn(O)cc-2c1[N+](=O)[O-] | 34.9 |
| COc1cc(O)c2c(c1)C(=O)c1cc3c(c(O)c1C2=O)C(OC1OC(C)C(OC)C(O)C1OC)C(OC)C(C)(O)C3=O (stereo unspecified) | 23.5 |
| CC1(C)OC2C(CO[Si](C)(C)C(C)(C)C)OC(n3c(I)c(C#C[Si](C)(C)C)c(=O)[nH]c3=O)C2O1 (stereo unspecified) | 16.7 |

Okay, next one:
Input `Clc1cc2c(c(CSc3nc4ccccc4n4cccc34)c1)OCOC2` . Output TGI: 44.9
